Tested on: 407 cancer cell lines
Assay: Cell viability of cancer cell lines (IC50), CellTiter-Glo Viability Assay, 96 h
Type: cell-based
Details: BT474 cells, 96 h; read-out: Absolute IC50

- compound: "N.N.[Cl][Pt][Cl] [Cisplatin, reference compound]"
  IC50 / µM: 59

* * *

System: 407 cancer cell lines
Experiment: Cell viability of cancer cell lines (IC50), CellTiter-Glo Viability Assay, 96 h
Assay type: cell-based
Conditions: Homo sapiens, HCC827, 96 h, HCC827 cells, 96 h; read-out: Absolute IC50
pIC50: −log10 of the molar value.
readout_name: pIC50

- chem_smiles: "Cc1nn(-c2nc(-c3ccc(C(F)(F)F)cc3)c(SC(C)C)s2)c(C(=O)O)c1-c1cccc(F)c1"
  recorded_value: "< 4.52"
